- tested_target: UniProt:Q9NQS5
- Sequence (Q9NQS5 whole entry): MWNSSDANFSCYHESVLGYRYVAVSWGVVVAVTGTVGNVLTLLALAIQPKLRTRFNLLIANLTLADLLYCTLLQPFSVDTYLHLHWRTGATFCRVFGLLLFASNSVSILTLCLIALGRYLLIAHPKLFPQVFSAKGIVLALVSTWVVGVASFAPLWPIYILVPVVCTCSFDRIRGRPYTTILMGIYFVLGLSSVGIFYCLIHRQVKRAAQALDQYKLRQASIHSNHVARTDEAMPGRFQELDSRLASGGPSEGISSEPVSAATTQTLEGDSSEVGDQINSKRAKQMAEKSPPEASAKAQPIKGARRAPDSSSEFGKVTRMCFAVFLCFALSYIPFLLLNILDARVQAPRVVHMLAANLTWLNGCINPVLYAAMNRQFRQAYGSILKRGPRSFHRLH
- assay_protocol: Gai biosensor BRET assay (GPR84-mediated activation of Gai, antagonist mode against agonist ZQ-16)
- Assay type: cell-based
- setup_conditions: compound tested at 10 μM (concentration code D)
Each record here notes measured inhibition at 10 µM.

Some compounds with recorded inhibition at 10 µM:
COCC#Cc1ccc([C@@H](C)n2c(C)cc(OCC3CCOCC3)cc2=O)cc1 (stereo in doubt) [Compound I-83]; < 25%
Cc1cc(OCc2ncccn2)cc(=O)n1C(C)C1CCN(c2ccc(C3CC3)cc2)CC1 (stereo not shown) [Compound I-368]; < 25%
Cc1cc(OC[C@H]2CCCCO2)cc(=O)n1[C@H](C)c1ccc(C#CC2CC2)cc1 [Compound I-145]; > 75%

Moving on to the next compound.
Requested field: inhibition at 10 µM. Item: Cc1cc(OCc2ncco2)cc(=O)n1C(C)c1ccc(C#CC2CC2)c(F)c1 (stereo not shown) [Compound I-365]
> 75%

Recorded values, source patent US20250340543A1.
